Assay: chemical genetic growth profiling, strain panel (AID 1159580);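 note: tested at 20 µM; growth read once vehicle control cultures reached saturation at 30 °C; 1 = growth at the plate median or of vehicle wells; lower values mean less growth of the strain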
Conditions: S. cerevisiae deletion strains, growth OD, locus YEL061C, strain CIN8, stronger effect = lower value
In all, about 5,500 compounds went through this assay and about 2,000 (36%) were called active. Roughly 18% stayed inconclusive and do not appear here. The list shows a part of the results.
REPORTED PROPERTY: normalized growth

MOLECULE	REPORTED PROPERTY	MEASUREMENT
O=C(NCc1nc(-c2ccc(C(F)(F)F)cc2)no1)Nc1ccc(F)cc1F	normalized growth	0.996 (inactive)
Nc1cc(-c2ccncc2)c[nH]c1=O	normalized growth	0.98 (inactive)
CCc1ccccc1NC(C)=O	normalized growth	1.02 (inactive)
CC(=O)Nc1ccccc1	normalized growth	0.975 (inactive)
NNC(=O)c1ccccc1O	normalized growth	0.965 (inactive)
Cc1cc(O)c(C=O)c2c1C(=O)Oc1c(C)c(O)c3c(c1O2)C(O)OC3=O (stereo not given)	normalized growth	0.975 (inactive)
O=c1[nH]cnc2[nH]ncc12	normalized growth	1 (inactive)
Cc1cccc(Nc2ccncc2S(=O)(=O)NC(=O)NC(C)C)c1	normalized growth	1.01 (inactive)
O=C(O)CC(CC(=O)Nc1ccc(I)cc1F)c1ccc(C(F)(F)F)cc1 (stereo not given)	normalized growth	1 (inactive)
Cc1cc(NS(=O)(=O)c2ccc(NS(=O)(=O)c3cc(C)c(Cl)cc3C)cc2)no1	normalized growth	0.984 (inactive)
Nc1ccncc1	normalized growth	1.01 (inactive)
Cc1cc(O)c(C=O)c2c1C(=O)Oc1c(COC(=O)/C=C/C(=O)O)c(O)c(C(=O)O)c(C)c1O2	normalized growth	0.97 (inactive)
Clc1ccc2c(c1)C(N1CCNCC1)=Nc1ccccc1O2	normalized growth	0.984 (inactive)
Cc1cc(=O)oc2c(O)c(O)ccc12	normalized growth	1 (inactive)
O=C(Nc1ccccc1)NC1CCCC1	normalized growth	0.965 (inactive)
O=c1c2cc(NS(=O)(=O)c3ccc(Cl)cc3)ccc2oc2ncccc12	normalized growth	1.04 (inactive)
Cc1cc(C)cc(OCC2CNC(=O)O2)c1 (stereo not given)	normalized growth	1 (inactive)
C/C(=N/Nc1c(Cl)cc(Cl)cc1Cl)c1cc(F)ccc1OC(=O)c1ccccc1F	normalized growth	1.04 (inactive)
COc1cc([C@@H]2c3cc4c(cc3[C@H](OC(C)=O)[C@H]3COC(=O)[C@@H]23)OCO4)cc(OC)c1OC	normalized growth	1.01 (inactive)
Cc1nc2sccn2c(=O)c1CCN1CCC(=C(c2ccc(F)cc2)c2ccc(F)cc2)CC1	normalized growth	0.672 (active)
O=S(=O)(Nc1ccc(Oc2ccc(Cl)cc2)cc1)c1ccccc1	normalized growth	0.51 (active)
O=C(Nc1ccccc1)c1ccccc1O	normalized growth	0.995 (inactive)
Cc1nc2ccccn2c(=O)c1CCN1CCC(C(=O)c2ccc(F)cc2)CC1	normalized growth	1.01 (inactive)
O=c1cc(-c2cc(O)c(O)c(O)c2)oc2cc(O)cc(O)c12	normalized growth	1 (inactive)
CN1CCN(C2=Nc3ccccc3Oc3ccc(Cl)cc32)CC1	normalized growth	0.997 (inactive)

* * *

Test: chemical genetic growth profiling, strain panel (AID 1159580);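 note: tested at 20 µM; growth read once vehicle control cultures reached saturation at 30 °C; 1 = growth at the plate median or of vehicle wells; lower values mean less growth of the strain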
Conditions: S. cerevisiae deletion strains, growth OD, locus YDR318W, strain mcm21, stronger effect = lower value
Out of some 5,500 compounds screened, about 2,000 (36%) were called active. Inconclusive results (about 18%) are left out. Some of the results follow.
Form field: normalized growth (one value per entry).

COMPOUND	normalized growth
C=C1C2CCC3(C)C(c4ccoc4)OC(=O)CC13OC1CC(OC(C)=O)C(C)(C)C(CC(=O)OC)C12C (stereo not drawn)	0.992
O=C(Nc1ccccc1)c1ccccc1O	0.981
CC1=C2[C@H]3OC(=O)[C@@H](C)[C@@H]3CC[C@@]2(C)C=CC1=O	1.04
Cc1cc(O)c(C)c2c1C(=O)Oc1c(C)c(O)c(C(=O)O)c(C)c1O2	0.971
CC(CCC(=O)O)[C@H]1CCC2C3CC[C@@H]4C[C@H](O)CC[C@]4(C)C3C[C@H](O)[C@@]21C (stereo partly drawn)	0.981
C=C1C2CC[C@@]3(C)[C@H](c4ccoc4)OC(=O)C[C@]13O[C@H]1CC(=O)C(C)(C)C(CC(=O)OC)[C@@]21C (stereo partly drawn)	0.998
C=C1C2CC[C@@]3(C)[C@H](c4ccoc4)OC(=O)C[C@]13O[C@H]1CC(O)C(C)(C)C(CC(=O)OC)[C@@]21C (stereo partly drawn)	1.02
O=c1[nH]cnc2[nH]ncc12	1.01
COc1cc([C@@H]2c3cc4c(cc3[C@H](OC(C)=O)[C@H]3COC(=O)[C@@H]23)OCO4)cc(OC)c1OC	1.02
COC(=O)CCC(C)C1CCC2C3CC[C@@H]4C[C@H](O)CC[C@]4(C)C3C[C@H](O)[C@]12C (stereo partly drawn)	0.993
C[C@H](CCC(=O)O)[C@H]1CCC2C3C(CC[C@@]21C)[C@@]1(C)CC[C@@H](O)C[C@H]1C[C@@H]3O (stereo partly drawn)	0.977
CN[C@@H]1[C@H](OC2[C@H](O[C@H]3[C@H](O)[C@@H](O)[C@H](N=C(N)N)[C@@H](O)[C@@H]3N=C(N)N)O[C@@H](C)[C@]2(O)C=O)O[C@@H](CO)[C@H](O)[C@H]1O (stereo partly drawn)	1.01
Nc1ccncc1	0.955
NS(=O)(=O)c1cc2c(cc1Cl)NC(C1CC3C=CC1C3)NS2(=O)=O (stereo not drawn)	1.02
CC(C)CCCC(C)C1CCC2C3CC[C@H]4CCCC[C@]4(C)C3CC[C@]12C (stereo partly drawn)	1
COC(=O)CCC(=O)O[C@H]1CCC2(C)C(CCC3C2C(=O)[C@@H](O)C2(C)C3CC3OC4(CCC(C)CO4)[C@@H](C)C32)C1 (stereo partly drawn)	0.996
COc1cc(C(=O)O)c2c(c1C)OC(=O)c1c(C)cc(O)c(C=O)c1O2	1.01
CC(CCC(=O)O)[C@H]1CCC2C3CC[C@@H]4C[C@H](O)CC[C@]4(C)C3CC[C@@]21C (stereo partly drawn)	0.951
